Target: T1, GST-Connector Enhancer PDZ domain 1 (Homo sapiens (Human)), Q969H4
T1 chain: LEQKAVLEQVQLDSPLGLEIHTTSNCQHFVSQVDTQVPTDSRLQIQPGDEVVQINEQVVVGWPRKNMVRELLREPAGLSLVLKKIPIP
Assay: G assay titration, PDZ 5 ug/ml
pKd: −log10 of the molar value.

# BINDER, pKd
measured = [
    ("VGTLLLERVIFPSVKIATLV (modifications not checked) [AdenoE4 typ9]", 7.00),
]
